# System Name: T1, corticotropin releasing factor 2 receptor
# T1 sequence (Q13324 whole entry, species assumed, looked up): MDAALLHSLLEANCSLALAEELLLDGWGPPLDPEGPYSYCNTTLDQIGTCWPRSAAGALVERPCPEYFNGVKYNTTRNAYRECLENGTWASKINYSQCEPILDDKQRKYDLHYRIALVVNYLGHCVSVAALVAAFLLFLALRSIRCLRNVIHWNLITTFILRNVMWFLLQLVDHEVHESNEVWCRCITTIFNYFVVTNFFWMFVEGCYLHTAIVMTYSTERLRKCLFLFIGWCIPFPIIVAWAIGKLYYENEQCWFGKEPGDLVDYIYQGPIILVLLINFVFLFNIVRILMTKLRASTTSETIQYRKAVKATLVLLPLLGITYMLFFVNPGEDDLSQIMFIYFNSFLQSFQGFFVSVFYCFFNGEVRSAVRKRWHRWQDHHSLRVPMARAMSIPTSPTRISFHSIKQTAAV
# Protocol: cell-based or functional assay
Ends that are not written are not given here.
Is CRF2R EC50 at least 8 nM? Then Criterion met. If not, Criterion not met.

Problem: Determine whether this binder has CRF2R EC50 no lower than 8 nM: IVLSLDVPIGLLQILLEQARHAAAHAAAHAQAHILAHV-NH2 [SEQ ID NO 367]
Result: Criterion met

Problem: Determine whether this binder has CRF2R EC50 no lower than 8 nM: ZGPPISIDLPLALLRKMIEIEKQEKEKQQAANNRLLLDTI (not fully specified; C-terminal amide) [SEQ ID NO 308]
Result: Criterion not met

Problem: Determine whether this binder has CRF2R EC50 no lower than 8 nM: NDDPPISIDLPLFLLRNMIEMARIENEREQAGLNAKYLAEV-NH2 [SEQ ID NO 257]
Result: Criterion met

Problem: Determine whether this binder has CRF2R EC50 no lower than 8 nM: IVLSLDVPIGLLQILLEQARARAAREQATTNARILARVM-NH2 [SEQ ID NO 368]
Result: Criterion met

Problem: Determine whether this binder has CRF2R EC50 no lower than 8 nM: DNPSLSIDVPLFLLRTLLELEKTQSQRERAEQNARIFARV-NH2 [SEQ ID NO 385]
Result: Criterion met

Problem: Determine whether this binder has CRF2R EC50 no lower than 8 nM: ZGPPISIDLPFQLLRKVIEIEKQEKEKQQAANNALLLATI (C-terminal amide) [SEQ ID NO 352]
Result: Criterion met
